# Tested on: Pseudomonas aeruginosa
# PROTOCOL SUMMARY: Synergistic antibacterial activity against Pseudomonas aeruginosa ATCC 27853 incubated for 18 to 24 hrs in presence of colistin by CLSI based microdilution broth method
# Format: functional
# TEST PARAMETERS: time 18-24 hrs
READOUT TYPE: MAC (µg/mL)
The reply should contain only the number, in µg/mL.

smiles_entry=N=C(N)NCCCCCCN(CCCCCCNC(=N)NCC1CC1)C(=O)N(CCCCCCNC(=N)N)CCCCCCNC(=N)NCC1CC1 readout_type=MAC result_value=8
smiles_entry=O=C(O)C(F)(F)F.[N-]=[N+]=NCCCCCCCCN(CCCCCCCCNC(=N)N)C(=O)N(CCCCCCCCN=[N+]=[N-])CCCCCCCCNC(=N)N readout_type=MAC result_value=16
smiles_entry=N=C(N)NCCCCCCCCN(CCCCCCCCN)C(=O)N(CCCCCCCCN)CCCCCCCCNC(=N)NCC1CC1 readout_type=MAC result_value=8
smiles_entry=N=C(N)NCCCCCCCCN(CCCCCCCCNC(=N)NCC1CC1)C(=O)NC(=N)NCCCCCCCCNCCCCCCCCNC(=N)NCC1CC1 readout_type=MAC result_value=2

Switching to the query record.
Prompt: Output measured MAC for this item: `N=C(NCCCCCCCCN(CCCCCCCCNC(=N)NCC1CC1)C(=O)N(CCCCCCNC(=N)NCC1CC1)CCCCCCNC(=N)NCC1CC1)NCC1CC1`
Completion: 128

* * *

# System: Escherichia coli
# PROTOCOL SUMMARY: Antibacterial activity against Escherichia coli CCUGT incubated for 18 to 24 hrs by CLSI based microdilution broth method
# Format: functional
# TEST PARAMETERS: Escherichia coli, CCUGT; time 18-24 hrs; read-out: MIC
A collection of compounds and their measured MIC
Please answer using a numeric value trailed by its unit.

Prompt: Return reported MIC. Input compound: `N=C(N)NCCCCCCCCN(CCCCCCNC(=N)NCC1CC1)C(=O)N(CCCCCCCCNC(=N)N)CCCCCCNC(=N)NCC1CC1.O=C(O)C(F)(F)F`
Completion: 4 µg/mL

Prompt: Please list MIC recorded for the compound `N=C(N)NCCCCCCCCCN(CCCCCCCCCNC(=N)NCC1CC1)C(=O)N(CCCCCCCCCNC(=N)N)CCCCCCCCCNC(=N)NCC1CC1.O=C(O)C(F)(F)F`
Completion: 8 µg/mL

Prompt: Determine from records and report MIC for `N=C(N)NCCCCCCCN(CCCCCCCNC(=N)NCC1CC1)C(=O)N(CCCCCCCNC(=N)N)CCCCCCCNC(=N)NCC1CC1.O=C(O)C(F)(F)F`
Completion: 8 µg/mL

The origin of these recorded values is ChEMBL document CHEMBL5500347.
